The origin of these recorded values is PubChem BioAssay (NCI).

- System: OVCAR-4 ovarian
- assay-procedure: NCI tumour cell line growth inhibition, 48 h
Hi there, I'd appreciate the recorded TGI for every entry that follows.

Could you please provide reported TGI for C=C1CC(C)(COc2ccc3c(C)c(Cl)c(=O)oc3c2)OC1=O (configuration not stated) ? Thanks!
10.4 µM

Could you please provide reported TGI for OCC1O[C@H](O[C@@H]2CCCN3CC(O)C(O)[C@@H]23)C(O)C(O)C1O (some centres not stated) ? Thanks!
> 100 µM

Could you please provide reported TGI for COc1ccc2nc3cc(Cl)ccc3c(NCCCNCCO)c2c1 ? Thanks!
2.87 µM

Could you please provide reported TGI for O=C1CC(c2c[nH]c3ccc(F)cc23)C(=O)N1 (configuration not stated) ? Thanks!
> 100 µM

Could you please provide reported TGI for O=C1OC(c2ccccc2)=NC1c1ccccc1 (configuration not stated) ? Thanks!
> 100 µM

Could you please provide reported TGI for CC(=O)C1CCN(c2ccccc2)C1 (configuration not stated) ? Thanks!
> 100 µM

Could you please provide reported TGI for COc1cc(OC2OC(CO)C(O)C(O)C2O)c2c(O)c3c(=O)cc(C)oc3cc2c1 (configuration not stated) ? Thanks!
> 100 µM

Could you please provide reported TGI for CCS(=O)C(=O)N(O)c1ccc(Cl)cc1 (configuration not stated) ? Thanks!
> 100 µM

Could you please provide reported TGI for O=C(CS(=O)(=O)c1nc2ccccc2nc1-c1ccccc1)Nc1ccc(F)cc1 ? Thanks!
49.4 µM

Could you please provide reported TGI for O=C1N=C2SC=C(NC(=S)Nc3ccccc3)N2NC12c1ccccc1-c1ccccc12 ? Thanks!
> 10 µM

Could you please provide reported TGI for C[N+](C)(CCCCCC[N+](C)(C)CCCN1C(=O)c2cccc3cccc(c23)C1=O)CCCN1C(=O)c2cccc3cccc(c23)C1=O ? Thanks!
> 100 µM

Could you please provide reported TGI for O=C1CN(c2ccccc2)Cc2nc(Cl)ccc2N1 ? Thanks!
> 100 µM

Could you please provide reported TGI for NC(=O)c1ccc2c(c1)-c1nc-2nc2[n-]c(nc3nc(nc4[n-]c(n1)c1ccc(C(N)=O)cc41)-c1ccc(C(N)=O)cc1-3)c1ccc(C(N)=O)cc21.[Co+2] ? Thanks!
> 50 µM

Could you please provide reported TGI for O=C(c1ccc(O)cc1O)C1C(c2ccc(O)cc2)OC(c2ccc(O)cc2)C1C(=O)c1ccc(O)cc1O (configuration not stated) ? Thanks!
> 100 µM

Could you please provide reported TGI for O=C1CC2OCC=C3CN4CCC56c7ccccc7N1C5C2C3CC46O (configuration not stated) ? Thanks!
> 100 µM

Could you please provide reported TGI for CC1CC2C3CCC4=CC(=O)C=CC4(C)C3(F)C(O)CC2(C)C1(O)C(=O)COP(=O)(O)O (configuration not stated) ? Thanks!
> 500 µM

Could you please provide reported TGI for C1CNOCCCONCCCNOCCCONC1 ? Thanks!
> 100 µM
